Numbers sourced from patent US20080058636A1.

- subject of test: human collagen type I (acid soluble, extracted from placenta, Sigma C7774) (human) (UniProt P02452)
- Sequence (P02452 162-1218 limits assumed, chain 1 of 2): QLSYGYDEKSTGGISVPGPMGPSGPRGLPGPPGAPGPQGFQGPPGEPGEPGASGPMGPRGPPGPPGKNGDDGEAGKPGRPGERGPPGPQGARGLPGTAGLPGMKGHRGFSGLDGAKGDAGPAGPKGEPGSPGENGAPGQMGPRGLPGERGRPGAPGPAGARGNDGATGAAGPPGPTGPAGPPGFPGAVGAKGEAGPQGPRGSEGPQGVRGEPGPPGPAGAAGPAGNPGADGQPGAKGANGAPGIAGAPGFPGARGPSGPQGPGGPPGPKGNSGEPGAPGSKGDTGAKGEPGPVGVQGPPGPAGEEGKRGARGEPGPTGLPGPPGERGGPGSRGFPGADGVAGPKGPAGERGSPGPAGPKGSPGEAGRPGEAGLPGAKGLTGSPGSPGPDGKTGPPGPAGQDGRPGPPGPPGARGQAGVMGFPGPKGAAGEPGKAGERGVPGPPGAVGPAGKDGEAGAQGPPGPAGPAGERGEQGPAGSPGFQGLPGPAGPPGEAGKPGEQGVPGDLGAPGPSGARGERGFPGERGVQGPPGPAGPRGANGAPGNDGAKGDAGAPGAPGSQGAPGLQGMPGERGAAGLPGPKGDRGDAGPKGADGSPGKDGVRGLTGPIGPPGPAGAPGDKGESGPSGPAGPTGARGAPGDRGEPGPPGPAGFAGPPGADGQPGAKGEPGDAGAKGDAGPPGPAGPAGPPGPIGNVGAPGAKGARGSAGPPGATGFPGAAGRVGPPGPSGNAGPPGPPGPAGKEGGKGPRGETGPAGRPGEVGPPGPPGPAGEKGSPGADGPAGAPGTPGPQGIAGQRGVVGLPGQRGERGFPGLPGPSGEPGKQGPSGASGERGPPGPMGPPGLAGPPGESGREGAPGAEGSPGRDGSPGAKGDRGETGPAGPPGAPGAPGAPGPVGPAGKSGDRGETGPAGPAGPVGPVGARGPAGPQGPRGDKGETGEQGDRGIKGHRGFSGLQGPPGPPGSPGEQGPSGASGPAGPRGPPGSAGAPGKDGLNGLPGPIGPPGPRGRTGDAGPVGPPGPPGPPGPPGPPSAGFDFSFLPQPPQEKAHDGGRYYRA
- Sequence (P08123 80-1119 limits assumed, chain 2 of 2, further chain): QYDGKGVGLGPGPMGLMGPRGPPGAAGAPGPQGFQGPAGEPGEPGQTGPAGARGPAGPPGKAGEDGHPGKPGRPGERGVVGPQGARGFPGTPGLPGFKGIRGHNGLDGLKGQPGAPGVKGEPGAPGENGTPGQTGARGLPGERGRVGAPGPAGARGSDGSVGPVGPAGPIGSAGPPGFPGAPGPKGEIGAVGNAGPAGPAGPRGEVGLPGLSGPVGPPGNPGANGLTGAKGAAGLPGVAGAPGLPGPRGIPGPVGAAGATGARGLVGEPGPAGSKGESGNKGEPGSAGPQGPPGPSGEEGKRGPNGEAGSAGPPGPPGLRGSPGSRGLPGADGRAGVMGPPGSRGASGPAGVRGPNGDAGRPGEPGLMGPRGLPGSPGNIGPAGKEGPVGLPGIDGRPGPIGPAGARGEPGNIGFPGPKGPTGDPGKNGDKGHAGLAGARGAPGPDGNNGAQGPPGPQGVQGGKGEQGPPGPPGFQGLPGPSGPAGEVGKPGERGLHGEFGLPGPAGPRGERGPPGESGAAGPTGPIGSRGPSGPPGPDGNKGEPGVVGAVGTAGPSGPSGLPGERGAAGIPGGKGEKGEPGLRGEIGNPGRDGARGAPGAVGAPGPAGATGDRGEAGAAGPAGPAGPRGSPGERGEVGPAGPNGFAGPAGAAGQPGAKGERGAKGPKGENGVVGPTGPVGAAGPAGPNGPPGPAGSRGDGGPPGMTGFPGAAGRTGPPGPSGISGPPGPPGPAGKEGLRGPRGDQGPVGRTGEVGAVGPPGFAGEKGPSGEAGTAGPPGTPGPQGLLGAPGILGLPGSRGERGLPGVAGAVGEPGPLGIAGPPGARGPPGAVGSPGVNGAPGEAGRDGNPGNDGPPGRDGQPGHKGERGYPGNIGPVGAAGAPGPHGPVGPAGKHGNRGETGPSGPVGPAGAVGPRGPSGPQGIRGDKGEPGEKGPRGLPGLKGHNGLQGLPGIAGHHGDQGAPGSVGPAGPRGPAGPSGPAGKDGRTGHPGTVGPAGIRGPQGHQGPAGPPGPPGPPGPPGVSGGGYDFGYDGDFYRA
- assay notes: dried collagen assay, 5 uM each
The label depends only on Human binding: Criterion met if it is at least 40%, Criterion not met if it is smaller.

Hi team, for GQWTCSGDEYTWHCAYE [Compound ID 839] , is the recorded Human binding at or above 40%?
Criterion not met

Hi team, for GAWTCSGDEYTWHCNYE [Compound ID 830] , is the recorded Human binding at or above 40%?
Criterion not met

Hi team, for GKWHCYTYFPYHYCVYG [Compound ID 963] , is the recorded Human binding at or above 40%?
Criterion met

Hi team, for GQWHCTTRFPAHYCLYG [Compound ID 865] , is the recorded Human binding at or above 40%?
Criterion not met

Hi team, for GKWHCTTYFPTHYCLYG [Compound ID 962] , is the recorded Human binding at or above 40%?
Criterion not met

Hi team, for GQWHCTTDFPHHYCLFG [Compound ID 890] , is the recorded Human binding at or above 40%?
Criterion not met

Hi team, for KKLWHCYTYFPHHYCVYG [Compound ID 1017] , is the recorded Human binding at or above 40%?
Criterion not met

Hi team, for GKWHCYTKFPHHYCLYGK [Compound ID 995] , is the recorded Human binding at or above 40%?
Criterion met

Hi team, for GQWHCKTRFPHHYCLYG [Compound ID 957] , is the recorded Human binding at or above 40%?
Criterion met

Hi team, for GQWHCTRRFPHHYCLYG [Compound ID 900] , is the recorded Human binding at or above 40%?
Criterion not met

Hi team, for GQWHCTTRFAHHYCLYG [Compound ID 938] , is the recorded Human binding at or above 40%?
Criterion not met

Hi team, for GQWTCYGDEYTWYCNYE [Compound ID 826] , is the recorded Human binding at or above 40%?
Criterion met

Hi team, for GKWHCYTYFPHHYCLYFK [Compound ID 985] , is the recorded Human binding at or above 40%?
Criterion met

Hi team, for GQWHCTKRFPHHYCLYG [Compound ID 940] , is the recorded Human binding at or above 40%?
Criterion not met

Hi team, for GKWHCTTYFPHHYCLYYK [Compound ID 976] , is the recorded Human binding at or above 40%?
Criterion met
